TESTED TARGET: GPR119 (Homo sapiens, UniProt Q8TDV5)
Construct: host or cells: CHO-K1 (GPR119 CRE-bla, doxycycline-induced)
Sequence (Q8TDV5 whole entry): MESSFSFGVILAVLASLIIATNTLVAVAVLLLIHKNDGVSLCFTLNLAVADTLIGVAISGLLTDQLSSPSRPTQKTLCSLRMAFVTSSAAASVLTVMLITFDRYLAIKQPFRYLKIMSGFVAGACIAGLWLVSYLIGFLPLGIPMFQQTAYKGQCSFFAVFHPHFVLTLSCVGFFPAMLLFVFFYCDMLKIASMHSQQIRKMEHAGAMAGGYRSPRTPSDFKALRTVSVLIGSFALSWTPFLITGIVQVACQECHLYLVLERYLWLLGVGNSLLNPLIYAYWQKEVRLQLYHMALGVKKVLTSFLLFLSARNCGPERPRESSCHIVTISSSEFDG
METHOD NOTES: cAMP Accumulation Assay (GPR119 CRE-bla CHO-K1 cells, LiveBLAzer-FRET B/G)
Assay type: cell-based
TEST CONTEXT: (Emax of the test compound/Emax of MBX-2982)x100, 5 hours incubation
Measured Emax (% RR) accompanies every entry in the list below.

# STRUCTURE, VALUE UNIT, Emax (% RR)
data = [
    ("C[C@H]1CN(c2ccc(C(F)(F)F)cn2)CCN1c1ncc(-c2ccc(-n3cnn(C)c3=O)c(F)c2)cn1", "% RR", 113.4),
    ("CCc1cnc(N2CCN(c3ncc(-c4ccc(-n5cnn(C(C)C)c5=O)c(F)c4)cc3C#N)CC2)nc1", "% RR", 130.9),
    ("CCc1cnc(N2CCN(c3ncc(-c4ccc(-n5cnn(CC(C)(C)O)c5=O)c(F)c4)cc3C#N)[C@@H](C)C2)nc1", "% RR", 102.1),
    ("CC(C)n1ncn(-c2ccc(-c3cnc(N4CCC(c5nnc(C(F)(F)F)o5)CC4)c(C#N)c3)cc2F)c1=O", "% RR", 104.2),
    ("CCc1cnc(N2CCN(c3ncc(-c4ccc(-n5cnn(CC(C)C)c5=O)c(F)c4)cc3C#N)[C@@H](C)C2)nc1", "% RR", 103.8),
    ("CCOC(=O)n1ncn(-c2ccc(-c3cnc(N4CCN(c5ncc(CC)cn5)C[C@@H]4C)c(C#N)c3)cc2F)c1=O", "% RR", 124.6),
    ("CCc1cnc(N2CCN(c3ncc(-c4ccc(-n5cnn(C)c5=O)c(F)c4)cc3C#N)[C@@H](C)C2)nc1", "% RR", 118.2),
]
